These data points were gathered from patent US9586965B2.

- TESTED_ON: JAK3 (Homo sapiens (Human))
- Sequence (P52333 781-1124): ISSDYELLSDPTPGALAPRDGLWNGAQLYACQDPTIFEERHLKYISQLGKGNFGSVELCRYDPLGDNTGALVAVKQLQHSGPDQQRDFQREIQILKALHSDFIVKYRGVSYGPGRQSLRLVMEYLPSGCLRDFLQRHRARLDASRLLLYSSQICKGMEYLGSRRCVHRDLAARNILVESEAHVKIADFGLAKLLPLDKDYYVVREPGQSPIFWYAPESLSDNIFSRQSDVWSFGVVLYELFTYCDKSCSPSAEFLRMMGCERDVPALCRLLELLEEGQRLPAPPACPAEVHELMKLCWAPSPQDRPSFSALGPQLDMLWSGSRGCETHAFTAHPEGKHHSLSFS
MEASURED_PROPERTY: IC50

Indicate its recorded IC50; the compound in question is C=CC(=O)Nc1cccc(Oc2nc(Nc3ccc(N4CCN(C)CC4)nc3)nc3[nH]ccc23)c1 [Compound 2]
0.0365 nM

* * *

- TESTED_ON: BTK (Homo sapiens (Human))
- Sequence (Q06187 whole entry): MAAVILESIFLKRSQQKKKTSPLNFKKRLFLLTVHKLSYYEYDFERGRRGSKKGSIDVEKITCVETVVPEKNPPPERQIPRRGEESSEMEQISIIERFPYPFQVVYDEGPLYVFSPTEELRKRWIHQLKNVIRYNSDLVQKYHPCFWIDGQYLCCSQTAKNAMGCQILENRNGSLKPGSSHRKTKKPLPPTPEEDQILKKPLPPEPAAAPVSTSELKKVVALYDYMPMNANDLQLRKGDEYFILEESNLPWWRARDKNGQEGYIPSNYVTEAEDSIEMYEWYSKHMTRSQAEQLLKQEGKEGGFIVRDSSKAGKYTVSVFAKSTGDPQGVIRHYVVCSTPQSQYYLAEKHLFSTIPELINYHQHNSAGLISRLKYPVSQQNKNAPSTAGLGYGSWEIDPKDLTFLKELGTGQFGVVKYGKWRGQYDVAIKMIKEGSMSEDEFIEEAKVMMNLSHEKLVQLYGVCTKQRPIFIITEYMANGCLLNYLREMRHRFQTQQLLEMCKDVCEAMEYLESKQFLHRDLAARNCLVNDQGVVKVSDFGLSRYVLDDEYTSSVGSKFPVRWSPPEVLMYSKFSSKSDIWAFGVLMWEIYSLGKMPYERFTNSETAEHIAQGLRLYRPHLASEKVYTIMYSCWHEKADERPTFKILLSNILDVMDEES
MEASURED_PROPERTY: pIC50
Scale note: pIC50 = -log10(concentration in M).

Send back BTK (Homo sapiens (Human)) pIC50 of C=CC(=O)Nc1cccc(Oc2nc(Nc3ccc(N4CCN(C)CC4)nc3)nc3[nH]ccc23)c1 [Compound 2] only.
9.44

* * *

- TESTED_ON: EGFR (pY1068) in H1975 cell (T790M/L858R) (Homo sapiens (Human), UniProt P00533, L858R/T790M)
- Sequence (P00533 25-1210 T790M/L858R): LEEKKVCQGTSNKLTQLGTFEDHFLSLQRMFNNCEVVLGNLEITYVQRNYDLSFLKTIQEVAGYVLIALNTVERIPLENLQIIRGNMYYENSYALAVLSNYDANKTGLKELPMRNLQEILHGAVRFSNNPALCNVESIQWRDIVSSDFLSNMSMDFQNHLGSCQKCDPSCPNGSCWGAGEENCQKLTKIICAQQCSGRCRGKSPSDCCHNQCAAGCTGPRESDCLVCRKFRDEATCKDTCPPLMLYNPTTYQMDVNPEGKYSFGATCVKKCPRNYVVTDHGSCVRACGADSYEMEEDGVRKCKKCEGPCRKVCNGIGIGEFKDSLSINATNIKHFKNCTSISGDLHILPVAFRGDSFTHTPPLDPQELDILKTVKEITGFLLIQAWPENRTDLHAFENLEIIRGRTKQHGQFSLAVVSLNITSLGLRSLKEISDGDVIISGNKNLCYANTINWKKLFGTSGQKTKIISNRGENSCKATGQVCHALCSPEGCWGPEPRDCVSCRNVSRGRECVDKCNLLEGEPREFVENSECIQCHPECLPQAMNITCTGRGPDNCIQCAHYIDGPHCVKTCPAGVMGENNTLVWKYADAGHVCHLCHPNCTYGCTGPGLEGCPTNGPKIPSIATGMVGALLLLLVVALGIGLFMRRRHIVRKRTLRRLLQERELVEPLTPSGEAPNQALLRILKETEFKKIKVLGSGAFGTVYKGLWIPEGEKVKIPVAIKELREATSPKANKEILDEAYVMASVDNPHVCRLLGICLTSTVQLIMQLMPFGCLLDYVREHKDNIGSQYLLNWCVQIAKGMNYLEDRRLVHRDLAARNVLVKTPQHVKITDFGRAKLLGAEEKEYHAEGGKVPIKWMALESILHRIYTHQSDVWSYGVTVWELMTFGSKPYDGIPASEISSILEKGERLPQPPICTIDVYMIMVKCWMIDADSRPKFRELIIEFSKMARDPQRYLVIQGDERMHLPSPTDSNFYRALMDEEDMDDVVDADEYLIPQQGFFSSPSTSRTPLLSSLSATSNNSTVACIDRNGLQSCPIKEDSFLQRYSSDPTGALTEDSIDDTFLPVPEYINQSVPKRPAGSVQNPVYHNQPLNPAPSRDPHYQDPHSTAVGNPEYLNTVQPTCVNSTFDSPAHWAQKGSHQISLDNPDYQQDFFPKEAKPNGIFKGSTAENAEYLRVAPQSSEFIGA
- TEST_PROTOCOL: pEGFR sandwich ELISA assay (Examples B-2, B-3, Table 21)
- Type: cell-based
- CONDITION_SET: read-out: IC50 (uM) H1975 T790M/L858R (no EGF stimulation)
In plain terms, low IC50, meaning strictly below 0.07 µM, gives Satisfied, and everything else gives Not satisfied.

# count of solved cases: 5
COMPOUND	CLASSIFICATION
C=CC(=O)Nc1cccc(Oc2nc(Nc3ccc(N4CCN(C)CC4)nc3)nc3c2ccn3CO)c1 [Compound 5]	Not satisfied
C=CC(=O)Nc1cccc(Oc2nc(Nc3ccc(N4CCN(C)CC4)nc3)nc3[nH]ccc23)c1 [Compound 2]	Satisfied
C=CC(=O)Nc1cccc(Oc2nc(Nc3ccc(N4CCN(C)CC4)cc3)nc3c2ccn3CO)c1 [Compound 4]	Satisfied
C=CC(=O)Nc1cccc(Oc2nc(Nc3ccc(N4CCN(C)CC4)cc3)nc3c2ccn3CCF)c1 [Compound 7]	Not satisfied
C=CC(=O)Nc1cccc(Oc2nc(Nc3ccc(N4CCN(C)CC4)c(F)c3)nc3c2ccn3CO)c1 [Compound 6]	Satisfied

Given C=CC(=O)Nc1cccc(Oc2nc(Nc3ccc(NC4CN(CCF)C4)cc3OC)nc3[nH]ccc23)c1 [Compound 34] , is recorded IC50 strictly lower than 0.07 µM?
Satisfied
